Source of measurements: patent CN116693676A

biological target: 肺炎支原体天然抗原(购自Microbix) (Mycoplasma pneumoniae); assay: indirect ELISA, antigen coated at 2 ug/ml, antibody 7.5 ng/ml
RECORDED_METRIC: OD450 (参考630nm) (OD)
Report only the number, with the unit OD understood.

Study these solved cases before continuing.
>>> reported_result("Anti-MP-22A9mut4 (antibody, mouse IgG1, kappa, V domains shown) VH: QAYLQQSGAELVRSGASVKMSCKASGYTFTTYNMHWVKQTPGQGLEWIGYVHPGYGITYYSQKFKGKATLTADTSSSTAYMLLSSITSEDSAVYFCTRSYYGYSYWFFDVWGAGTTVTVSS VL: NIVMTQSPKSVSMSVGERVTLNCKASENVGSYVAWYQQKPDRSPKLLIHGASNRYTGVPDRFTGSGSTTDFTLTISSVQAEDLADYHCGQTYNYPYTFGGGTKLEIKR")
1.47
>>> reported_result("Anti-MP-22A9mut6 (antibody, mouse IgG1, kappa, V domains shown) VH: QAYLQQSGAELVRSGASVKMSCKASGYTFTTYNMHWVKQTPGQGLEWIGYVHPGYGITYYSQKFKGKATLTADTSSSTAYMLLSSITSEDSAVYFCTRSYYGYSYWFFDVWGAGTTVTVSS VL: NIVMTQSPKSVSMSVGERVTLNCKASENVGSYVAWYQQKPDRSPKLLIHGASNRYTGVPDRFTGSGSTTDFTLTLSSVQAEDLADYHCGQTYNYPYTFGGGTKLEIKR")
1.42

What does the record list as OD450 (参考630nm) for Anti-MP-22A9mut1 (antibody, mouse IgG1, kappa, V domains shown) VH: QAYLQQSGAELVRSGASVKMSCKASGYTFTTYNMHWVKQTPGQGLEWIGYVHPGYGITYYSQKFKGKATLTADTSSSTAYMILSSLTSEDSAVYFCTRSYYGYSYWFFDVWGAGTTVTVSS VL: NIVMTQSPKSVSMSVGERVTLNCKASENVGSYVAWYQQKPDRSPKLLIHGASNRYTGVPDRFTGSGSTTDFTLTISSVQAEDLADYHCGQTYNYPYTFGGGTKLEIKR ?
1.39

Then Anti-MP-22A9mut2 (antibody, mouse IgG1, kappa, V domains shown) VH: QAYLQQSGAELVRSGASVKMSCKASGYTFTTYNMHWVKQTPGQGLEWIGYVHPGYGITYYSQKFKGKATLTADTSSSTAYMLLSSLTSEDSAVYFCTRSYYGYSYWFFDVWGAGTTVTVSS VL: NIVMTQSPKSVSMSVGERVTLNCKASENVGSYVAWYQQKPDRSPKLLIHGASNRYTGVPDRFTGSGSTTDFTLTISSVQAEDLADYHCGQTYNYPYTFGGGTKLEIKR ?
1.6
